tested on: colon cancer cell lines; conditions: five-dose
value.kind: Percent of Cell Lines Impacted (%), LC50, Colon
A number alone suffices; assume %.

Dear colleague, I am looking for the recorded Percent of Cell Lines Impacted (%), LC50, Colon of the following compound: CCCCCCCC(=O)SCC/C=C/[C@@H]1CC(=O)NCc2nc(cs2)C2=N[C@@](C)(CS2)C(=O)N[C@@H](C(C)C)C(=O)N1 [compound of formula aa]
43

Form field: reported Percent of Cell Lines Impacted (%), LC50, Colon of CCCCCCCC(=O)SCC/C=C/[C@@H]1CC(=O)NCc2cccc(n2)C2=N[C@@](C)(CS2)C(=O)N[C@@H](C(C)C)C(=O)O1 [compound of formula bb]
29

Look at this compound and give its reported Percent of Cell Lines Impacted (%), LC50, Colon. CCCCCCCC(=O)SCC/C=C/[C@@H]1CC(=O)NCc2nc(co2)C2=N[C@@](C)(CS2)C(=O)N[C@@H](C(C)C)C(=O)O1 [compound of formula D]
29

What value of Percent of Cell Lines Impacted (%), LC50, Colon has been reported for the following compound? CCCCCCCC(=O)SCC/C=C/[C@@H]1CC(=O)NCc2cc(ccn2)C2=N[C@@](C)(CS2)C(=O)N[C@@H](C(C)C)C(=O)O1 [compound of formula A]
43
